Test system: normal primary NK cells, pool 1 (3 donors), resting (IL-2 0 ng/mL)
Experiment: percent inhibition of viability; higher = more inhibition
Details: 72 h; 0.1 nM
I'd be grateful if you could share measured percent inhibition of viability for these entries.
Respond numerically; units are % and should not be typed.

Inquiry: So what percent inhibition of viability did CC[C@@H]1C(=O)N(C)c2cnc(Nc3ccc(C(=O)NC4CCN(C)CC4)cc3OC)nc2N1C1CCCC1 [BI 2536] (max concentration tested 1000 nM) get with normal primary NK cells, pool 1 (3 donors), resting (IL-2 0 ng/mL)?
Reply text: 4.96

Inquiry: So what percent inhibition of viability did CC(=O)O[C@H]1C(=O)[C@@]2(C)[C@H]([C@H](OC(=O)c3ccccc3)[C@]3(O)C[C@H](OC(=O)[C@H](O)[C@@H](NC(=O)c4ccccc4)c4ccccc4)C(C)=C1C3(C)C)[C@]1(OC(C)=O)CO[C@@H]1C[C@@H]2O [Paclitaxel] (max concentration tested 1000 nM) get with normal primary NK cells, pool 1 (3 donors), resting (IL-2 0 ng/mL)?
Reply text: -38.3

Inquiry: So what percent inhibition of viability did Cn1cnc2c(F)c(Nc3ccc(Br)cc3F)c(C(=O)NOCCO)cc21 [Binimetinib] (max concentration tested 1000 nM) get with normal primary NK cells, pool 1 (3 donors), resting (IL-2 0 ng/mL)?
Reply text: -4.5

* * *

I'd be grateful if you could share measured drug sensitivity score for these entries.
Tested on: normal primary NK cells, pool 1 (3 donors), resting (IL-2 0 ng/mL)
Assay: drug sensitivity score (DSS) (DSS units); higher = more sensitive; extreme values may be limits of the assay
Conditions: 72 h
When you answer, write just the number.

Inquiry: Can you look up the measured drug sensitivity score of CCc1cc2c(cc1N1CCC(N3CCOCC3)CC1)C(C)(C)c1[nH]c3cc(C#N)ccc3c1C2=O [Alectinib] (max concentration tested 1000 nM) for me?
Reply text: 0.17

Inquiry: Can you look up the measured drug sensitivity score of Clc1ccc(C(c2ccccc2Cl)C(Cl)Cl)cc1 (centres undefined) [Mitotane] (max concentration tested 10000 nM) for me?
Reply text: 0

Inquiry: Can you look up the measured drug sensitivity score of Nc1cc(C(F)(F)F)c(-c2cc(N3CCOCC3)nc(N3CCOCC3)n2)cn1 [Buparlisib] (max concentration tested 10000 nM) for me?
Reply text: 1.48

Inquiry: Can you look up the measured drug sensitivity score of COCC(=O)NC/C=C/c1ccc2ncnc(Nc3ccc(Oc4ccc(C)nc4)c(C)c3)c2c1 (max concentration tested 10000 nM) for me?
Reply text: 6.9

* * *

System: normal primary NK cells, pool 3 (3 donors) (IL-2 2.5 ng/mL)
Assay: percent inhibition of viability; higher = more inhibition
Settings: 72 h; 100 nM
I'd be grateful if you could share measured percent inhibition of viability for these entries.
Respond numerically; units are % and should not be typed.

Inquiry: Can you look up the measured percent inhibition of viability of O=C(O)CCCCC(CCSCc1ccccc1)SCc1ccccc1 (centres undefined) [CPI-613] (max concentration tested 10000 nM) for me?
Reply text: 1.21

Inquiry: Can you look up the measured percent inhibition of viability of C=C1C[C@@H]2[C@H](CC[C@]3(C)C(=O)CC[C@@H]23)[C@@]2(C)C=CC(=O)C=C12 [Exemestane] (max concentration tested 10000 nM) for me?
Reply text: 7.22

Inquiry: Can you look up the measured percent inhibition of viability of C[C@@H](Oc1cc(-n2cnc3ccc(CN4CCN(C)CC4)cc32)sc1C(N)=O)c1ccccc1C(F)(F)F (max concentration tested 10000 nM) for me?
Reply text: 15.8

Inquiry: Can you look up the measured percent inhibition of viability of Nc1ncn([C@H]2C[C@H](O)[C@@H](CO)O2)c(=O)n1 [Decitabine] (max concentration tested 10000 nM) for me?
Reply text: 2.61

Inquiry: Can you look up the measured percent inhibition of viability of Cn1cc(-c2ccc3nnc(C(F)(F)c4ccc5ncccc5c4)n3n2)cn1 (max concentration tested 10000 nM) for me?
Reply text: -6.24

Inquiry: Can you look up the measured percent inhibition of viability of CC(=O)O[C@@]12CO[C@@H]1C[C@H](O)[C@@]1(C)C(=O)[C@H](O)C3=C(C)[C@@H](OC(=O)[C@H](O)[C@@H](NC(=O)OC(C)(C)C)c4ccccc4)C[C@@](O)([C@@H](OC(=O)c4ccccc4)[C@H]21)C3(C)C [Docetaxel] (max concentration tested 1000 nM) for me?
Reply text: 7.86

Inquiry: Can you look up the measured percent inhibition of viability of CCn1cc(-c2ccnc3[nH]c(-c4cccc(CN(C)C)c4)cc23)c(-c2ccc(NC(=O)N(C)C)cc2)n1 (max concentration tested 1000 nM) for me?
Reply text: -0.31

Inquiry: Can you look up the measured percent inhibition of viability of Cc1cc(C)c(/C=C2\C(=O)Nc3ccccc32)[nH]1 [Semaxanib] (max concentration tested 10000 nM) for me?
Reply text: -13.2

Inquiry: Can you look up the measured percent inhibition of viability of CS(=O)(=O)OCCCCOS(C)(=O)=O [Busulfan] (max concentration tested 100000 nM) for me?
Reply text: -2.78

* * *

System: NK-92 (IL-2 2.5 ng/mL)
Experiment: percent inhibition of viability; higher = more inhibition
Details: 72 h; 100 nM
Property Measured: percent inhibition of viability

Inquiry: Can you look up the measured percent inhibition of viability of COC1=CC(c2cc3ccccc3[nH]2)=N/C1=C\c1[nH]c(C)cc1C [Obatoclax] (max concentration tested 10000 nM) for me?
Reply text: 16.4%

Inquiry: Can you look up the measured percent inhibition of viability of CN1CCC(COc2cnc(-c3cccc(Cn4nc(-c5cccc(C#N)c5)ccc4=O)c3)nc2)CC1 (max concentration tested 1000 nM) for me?
Reply text: -11.4%

Inquiry: Can you look up the measured percent inhibition of viability of O=C(/C=C/c1cccc(S(=O)(=O)Nc2ccccc2)c1)NO [Belinostat] (max concentration tested 10000 nM) for me?
Reply text: 52.2%

Inquiry: Can you look up the measured percent inhibition of viability of COc1cc(C(=O)O)ccc1NC(=O)[C@@H]1N[C@@H](CC(C)(C)C)[C@](C#N)(c2ccc(Cl)cc2F)[C@H]1c1cccc(Cl)c1F [RG7388] (max concentration tested 10000 nM) for me?
Reply text: 8.42%

Inquiry: Can you look up the measured percent inhibition of viability of Nc1nc(N)c2nc(-c3cccc(O)c3)c(-c3cccc(O)c3)nc2n1 [TG100-115] (max concentration tested 10000 nM) for me?
Reply text: 7.95%

Inquiry: Can you look up the measured percent inhibition of viability of Nc1nc(Cl)nc2c1ncn2[C@H]1C[C@H](O)[C@@H](CO)O1 [Cladribine] (max concentration tested 1000 nM) for me?
Reply text: 92.3%

Inquiry: Can you look up the measured percent inhibition of viability of Nc1ccn([C@@H]2O[C@H](CO)[C@@H](O)[C@@H]2O)c(=O)n1 [Cytarabine] (max concentration tested 10000 nM) for me?
Reply text: 50.8%

Inquiry: Can you look up the measured percent inhibition of viability of Cn1cnc2c(F)c(Nc3ccc(Br)cc3F)c(C(=O)NOCCO)cc21 [Binimetinib] (max concentration tested 1000 nM) for me?
Reply text: 0.36%

Inquiry: Can you look up the measured percent inhibition of viability of COc1cc2nccc(Oc3ccc(NC(=O)Nc4cc(C)on4)c(Cl)c3)c2cc1OC [Tivozanib] (max concentration tested 10000 nM) for me?
Reply text: 22.3%

Inquiry: Can you look up the measured percent inhibition of viability of CCc1cc2c(cc1N1CCC(N3CCOCC3)CC1)C(C)(C)c1[nH]c3cc(C#N)ccc3c1C2=O [Alectinib] (max concentration tested 1000 nM) for me?
Reply text: 9.46%

Inquiry: Can you look up the measured percent inhibition of viability of FC(F)c1nc2ccccc2n1-c1nc(N2CCOCC2)nc(N2CCOCC2)n1 [ZSTK474] (max concentration tested 10000 nM) for me?
Reply text: 45.6%

Inquiry: Can you look up the measured percent inhibition of viability of Nc1cc(C(F)(F)F)c(-c2cc(N3CCOCC3)nc(N3CCOCC3)n2)cn1 [Buparlisib] (max concentration tested 10000 nM) for me?
Reply text: 15.7%

Inquiry: Can you look up the measured percent inhibition of viability of Cc1ccc(F)c(NC(=O)Nc2ccc(-c3cccc4[nH]nc(N)c34)cc2)c1 [Linifanib] (max concentration tested 1000 nM) for me?
Reply text: -0.86%

Inquiry: Can you look up the measured percent inhibition of viability of CN1CCC(CNc2ccc3ncc(-c4cccc(OC(F)(F)F)c4)n3n2)CC1 [SGI-1776] (max concentration tested 10000 nM) for me?
Reply text: 2.24%

Inquiry: Can you look up the measured percent inhibition of viability of CNC(=O)c1ccc(N2C(=S)N(c3ccc(C#N)c(C(F)(F)F)c3)C(=O)C23CCC3)cc1F [RD162] (max concentration tested 10000 nM) for me?
Reply text: -15.2%
